- subjectOfTest: Neu5Ac(a2-3)Gal(b1-3)GlcNAc(b1-3)GalNAc
- experimentalDetails: glycan array binding signal (z-score within array); higher = stronger binding
- assayConditions: glycan notation: IUPAC condensed, linker removed
About 410 targets per protein were measured; listed, in parts, are those with the strongest signals and a random draw of the rest.
# glycan array binding signal (z-score) per record follows
metric: glycan array binding signal (z-score)

[
  {
    "binder": "Gal 3 (Homo sapiens), P17931 (protein) MADNFSLHDALSGSGNPNPQGWPGAWGNQPAGAGGYPGASYPGAYPGQAPPGAYPGQAPPGAYHGAPGAYPGAPAPGVYPGPPSGPGAYPSSGQPSAPGAYPATGPYGAPAGPLIVPYNLPLPGGVVPRMLITILGTVKPNANILDFQRGNDVAFHFNPRFNENNRRVIVCNTKLDNNWGREERQSVFPFESGKPFKIQVLVEPDHFKVAVNDAHLLQYNHRVKKLNEISKLGISGDIDLTSASYTMI",
    "metric": "glycan array binding signal (z-score)",
    "valueObserved": -0.375
  },
  {
    "binder": "Intelectin-1a (Mus musculus) (protein) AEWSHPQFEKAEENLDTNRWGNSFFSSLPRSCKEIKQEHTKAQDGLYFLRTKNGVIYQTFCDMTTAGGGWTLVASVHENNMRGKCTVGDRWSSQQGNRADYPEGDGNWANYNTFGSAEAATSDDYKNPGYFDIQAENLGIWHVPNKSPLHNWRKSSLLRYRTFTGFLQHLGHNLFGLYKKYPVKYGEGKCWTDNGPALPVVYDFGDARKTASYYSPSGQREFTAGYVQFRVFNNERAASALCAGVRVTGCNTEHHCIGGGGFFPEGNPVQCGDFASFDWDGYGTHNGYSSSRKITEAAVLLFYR",
    "metric": "glycan array binding signal (z-score)",
    "valueObserved": -0.237
  },
  {
    "binder": "CTLY 1 (Homo sapiens), Q6ZS10 (protein) AITCPEGWLPFEGKCYYFSPSTKSWDEARMFCQENYSHLVIINSFAEHNFVAKAHGSPRVYWLGLNDRAQEGDWRWLDGSPVTLSFWEPEEPNNIHDEDCATMNKGGTWNDLSCYKTTYWICERKGLNDIFEAQKIEWHE",
    "metric": "glycan array binding signal (z-score)",
    "valueObserved": -0.237
  },
  {
    "binder": "CGL (Crenomytilus grayanus), H2FH31 (protein) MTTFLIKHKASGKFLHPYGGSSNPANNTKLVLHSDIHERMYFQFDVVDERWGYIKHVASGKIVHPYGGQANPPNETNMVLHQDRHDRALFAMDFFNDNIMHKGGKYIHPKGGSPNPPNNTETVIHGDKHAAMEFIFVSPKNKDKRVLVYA",
    "metric": "glycan array binding signal (z-score)",
    "valueObserved": -0.337
  },
  {
    "binder": "AT5G24760(45) (Arabidopsis thaliana), Q8LEB2 (protein) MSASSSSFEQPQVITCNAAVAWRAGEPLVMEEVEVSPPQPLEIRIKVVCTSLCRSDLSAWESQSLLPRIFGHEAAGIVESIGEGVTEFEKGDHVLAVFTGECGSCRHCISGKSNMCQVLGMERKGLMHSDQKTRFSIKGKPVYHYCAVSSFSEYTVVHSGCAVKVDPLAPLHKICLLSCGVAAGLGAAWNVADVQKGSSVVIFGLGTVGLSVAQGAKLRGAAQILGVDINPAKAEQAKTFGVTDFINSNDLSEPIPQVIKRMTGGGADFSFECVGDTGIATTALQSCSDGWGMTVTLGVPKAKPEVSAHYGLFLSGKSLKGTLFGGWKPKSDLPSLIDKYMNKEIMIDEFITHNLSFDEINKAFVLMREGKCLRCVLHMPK",
    "metric": "glycan array binding signal (z-score)",
    "valueObserved": -0.553
  }
]
